protocol description: Pharmacokinetic determination in mice (subcutaneous)
Type: in vivo
test context: sc, female BALB/c mouse, single administration, plasma, read-out: MRT0-inf

>  <compound>
O=C1CO[C@H](c2cn(-c3ccc(Br)cc3)nc2-c2ccc(F)cc2)N1CCc1ccc2[nH]c(=O)[nH]c2c1 [example 3 R isomer]

>  <MRT inf>
2.4 h

$$$$

---

protocol description: Pharmacokinetic determination in mice (subcutaneous)
Type: in vivo
test context: sc, female BALB/c mouse, single administration, plasma

>  <compound>
O=C1CO[C@H](c2cn(-c3ccc(Br)cc3)nc2-c2ccc(F)cc2)N1CCc1ccc2[nH]c(=O)[nH]c2c1 [example 3 R isomer]

>  <readout units>
ng·h/mL

>  <AUC(0-inf)>
2080

$$$$
